- test-system: T1, human ACVR2A (human, UniProt P27037 20-135, limits assumed); also: test concentration or dose not given here
- T1 construct: also called activin receptor, type II A
- T1 sequence (P27037 20-135 limits assumed): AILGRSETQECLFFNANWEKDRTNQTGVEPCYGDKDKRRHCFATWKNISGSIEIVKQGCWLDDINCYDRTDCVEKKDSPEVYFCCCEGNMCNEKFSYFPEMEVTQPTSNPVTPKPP
- procedure-details: ELISA
Please go through the items and note down their optical density.
Express the result in OD but write the number alone.

Ask: Please give the documented optical density of 369_A01 (antibody, V domains shown, VH and VL only) VH: EVQLLESGGGLVQPGGSLRLSCAASGFTFDSYSMNWVRQAPGKGLEWVSGINYNSGYKGYADSVKGRFTISRDNSKNTLYLQMNSLRAEDTAVYYCARSATWHDTHLDYWGQGTLVTVSS VL: DIQMTQSPSSLSASVGDRVTITCRASQSILTYVNWYQQKPGKAPKLVIYAATSLASGVPSRFSGSGSGTDFTLTISSLQPEDFATYYCQQSYELPLTFGGGTKVEIK
Result: 3.6

Ask: Please look at this binder and report its optical density: 370_A10 (antibody, V domains shown, VH and VL only) VH: EVQLLESGGGLVQPGGSLRLSCAASGFTFSDYSMNWVRQAPGKGLEWVSSINYNSGYKGYADSVKGRFTISRDNSKNTLYLQMNSLRAEDTAVYYCARSATWHDTHLDYWGQGTLVTVSS VL: DIQMTQSPSSLSASVGDRVTITCRASQSILSYVNWYQQKPGKAPKLLIYAATSLASGVPSRFSGSGSGTDFTLTISSLQPEDFATYYCQQSYDTPLTFGGGTKVEIK
Result: 2.58

Ask: Provide measured optical density value, entry: 366_C03 (antibody, V domains shown, VH and VL only) VH: EVQLLESGGGLVQPGGSLRLSCAASGFTFDSYGMNWVRQAPGKGLEWVSNINYNGGYTGYADSVKGRFTISRDNSKNTLYLQMNSLRAEDTAVYYCARSATWHDTHLDYWGQGTLVTVSS VL: DIQMTQSPSSLSASVGDRVTITCRASQSILSYLNWYQQKPGKAPKLVIYAATSRASGVPSRFSGSGSGTDFTLTISSLQPEDFATYYCQQSYSNPLTFGGGTKVEIK
Result: 2.41

Ask: Report optical density, nothing else, for this binder: 374_E03 (antibody, V domains shown, VH and VL only) VH: EVQLLESGGGLVQPGGSLRLSCAASGFTFSSYSMNWVRQAPGKGLEWVSNINYNSGYKGYADSVKGRFTISRDNSKNTLYLQMNSLRAEDTAVYYCARSATWHDTHLDYWGQGTLVTVSS VL: DIQMTQSPSSLSASVGDRVTITCRASQSILTYVNWYQQKPGKAPKLVIYAATSLASGVPSRFSGSGSGTDFTLTISSLQPEDFATYYCQQSYDTPLTFGGGTKVEIK
Result: 3.72

Ask: For the binder 368_G07 (antibody, V domains shown, VH and VL only) VH: EVQLLESGGGLVQPGGSLRLSCAASGFTFSSYSMHWVRQAPGKGLEWVSSINYNGGYTSYADSVKGRFTISRDNSKNTLYLQMNSLRAEDTAVYYCARSATWHDTHLDYWGQGTLVTVSS VL: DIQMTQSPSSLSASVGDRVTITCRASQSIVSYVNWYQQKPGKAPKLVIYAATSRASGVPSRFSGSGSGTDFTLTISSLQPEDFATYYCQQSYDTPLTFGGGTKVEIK , give its measured optical density value.
Result: 1.79
